experiment: NCI Yeast Anticancer Drug Screen. Data for the sgs1 mgt1 strain (AID 161);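 also: 0% = growth of cultures given vehicle only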; details: S. cerevisiae sgs1 mgt1 strain, at 50.0 µM, hits give high values
Compounds without any hit were thinned out: in the full panel of roughly 79,000, 15% have a hit.
Below, each entry is listed alongside its reported growth inhibition.
Response body: numeric value in %, unit text excluded.

> print(dat)
                                   compound  quantityunit    val
1  CC(C(=O)c1ccccc1)N(C)C (stereo not drawn)             %   -4.2
2  CCC1C2Cc3ccc(O)cc3C1(CC)CCN2C (stereo not drawn)             %  -42.5

Turning now to a further compound:
*Q* Returns the measured growth inhibition for the input compound. Input: `N#CN`
*A* 22.1

Origin of measurements: PubChem BioAssay (NCI)
